Data provenance: paper PMC10397247

target: T1, 4H906-bH
T1 chain: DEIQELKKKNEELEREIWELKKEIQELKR
measurement-description: two-hybrid library CCNG1;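 note: natural log of median RNA to DNA barcode read ratio; higher means stronger binding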
quantity: interaction score

# interaction score lookup, item DKNQELKKEIEELERKIWELKKENQELKR [4H3628-bH]
-0.107

Which interaction score value is on record for DKNQELEKENEELKRKIWELEKEIQELKR [4H3298-bH] ?
-0.397

Bench note: what interaction score did DKNQELKKKNEELEREIWELEKKIQELKR [4H3974-bH] show?
-0.332

Fill blank: measured interaction score of the binder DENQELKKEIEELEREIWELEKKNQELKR [4H1544-bH] is ____.
0.0592

Name the recorded interaction score for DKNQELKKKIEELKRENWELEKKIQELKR [4H3926-bH] .
-1.18

Need interaction score, item DKNQELKKEIEELERKIWELKKKNQELER [4H3631-bH]
-1.74

(a) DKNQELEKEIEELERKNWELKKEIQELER [4H3129-bH]
(b) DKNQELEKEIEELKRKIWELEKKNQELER [4H3175-bH]
(c) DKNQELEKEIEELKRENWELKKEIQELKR [4H3162-bH]
(d) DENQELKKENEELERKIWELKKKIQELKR [4H1710-bH]
Please order the records by their reported interaction score, lowest number first. Write the labels in rank order as requested.
d, a, c, b
(d: -0.745, a: -0.384, c: -0.0502, b: 0.787)
